molecular target: T1, huCD33-G69 stably expressed on Jurkat cells (human, UniProt P20138 18-364); experiment: FACS on cells;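 note: fixed Jurkat cells bearing either CD33 variant, barcoded by dye, exposed to myc-tagged scFv periplasmic extracts, detected with anti-myc PE antibody and read by flow cytometry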
T1 construct: whole, on cells; >200,000 receptors per cell; also called CD33 Mutant; CD33 R69G
T1 sequence (P20138 18-364 R69G): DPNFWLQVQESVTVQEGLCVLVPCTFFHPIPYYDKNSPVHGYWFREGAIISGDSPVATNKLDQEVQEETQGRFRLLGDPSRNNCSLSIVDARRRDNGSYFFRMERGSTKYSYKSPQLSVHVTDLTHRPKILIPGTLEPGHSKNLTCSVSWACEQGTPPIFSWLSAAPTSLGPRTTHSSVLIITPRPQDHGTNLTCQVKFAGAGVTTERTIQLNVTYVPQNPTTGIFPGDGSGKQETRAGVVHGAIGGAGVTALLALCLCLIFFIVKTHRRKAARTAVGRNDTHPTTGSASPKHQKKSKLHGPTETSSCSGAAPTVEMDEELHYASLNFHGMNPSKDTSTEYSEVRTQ
reported property: geometric mean MFI fold change over Jurkat parental

binder	result
Polypeptide No. 40 (scFv, V domains shown, scFv) VH: QVQLVQSGAEVKKPGASVKVSCKASGYTFTDYHMHWVRQAPGQGLEWMGWMSPNSGNTGYAQNFQGRVTMTRDTSTSTVYMELSSLRSEDTAVYYCARADYYGSDYVKFDYWGQGTLVTVSS VL: DIQMTQSPSSLSASVGDRVTITCRVSQGISSYLNWYQQKPGKAPKLLIYEASTLESGVPSRFSGSGSGTDFTLTISSLQPEDFATYYCQQGYSTPPTFGQGTKVEIKR	10 to 30 fold

Noted for Polypeptide No. 23 (scFv, V domains shown, scFv) VH: QVQLVQSGAEVKKPGASVKVSCKASGYPFTAHYIHWVRQAPGQGLEWMGWINPNSGGTNYAQKFQGRVTMTRDTSTSTVYMELSSLRSEDTAVYYCARDVEMATIGAYWYFDLWGRGTLVTVSS VL: DIQMTQSPSSLSASVGDRVTITCRASQGINNWLAWYQQKPGKAPKLLIYDASNLETGVPSRFSGSGSGTDFTLTISSLQPEDFATYYCQQANSFPPTFGQGTKLEIKR : its geometric mean MFI fold change over Jurkat parental reads < 2 fold

Noted for Polypeptide No. 9 (scFv, V domains shown, scFv) VH: QVQLVQSGAEVKKPGSSVKVSCKASGGTFSSDAINWVRQAPGQGLEWMGGFDPEDGETIYAQKFQGRVTITADESTSTAYMELSSLRSEDTAVYYCARGPSGYDFEFDYWGQGTLVTVSS VL: DIQMTQSPSSLSASVGDRVTITCRSSRNISHWLAWYQQKPGKAPKLLIYKASSLESGVPSRFSGSGSGTDFTLTISSLQPEDFATYYCQQAISFPLTFGGGTKVEIKR : its geometric mean MFI fold change over Jurkat parental reads < 2 fold

Noted for Polypeptide No. 1 (scFv, V domains shown, scFv) VH: QVQLVQSGAEVKKPGASVKVSCKASGYSFTGYYIHWVRQAPGQGLEWMGWINPNSGGTNYAQKFQGRVTMTRDTSTSTVYMELSSLRSEDTAVYYCARDQWDGYNSGYFDYWGQGTLVTVSS VL: DIQMTQSPSSLSASVGDRVTITCRASQTINDWLAWYQQKPGKAPKLLIYSASTLHSGVPSRFSGSGSGTDFTLTISSLQPEDFATYYCQQAYSTPWTFGQGTKVEIKR : its geometric mean MFI fold change over Jurkat parental reads < 2 fold

Noted for Polypeptide No. 35 (scFv, V domains shown, scFv) VH: QVQLVQSGAEVKKPGASVKVSCKASGYTFTDYYMHWVRQAPGQGLEWMGIINPSGGSTRYAQKFQGRVTMTRDTSTSTVYMELSSLRSEDTAVYYCARVDGRRWLRSDYWGQGTLVTVSS VL: DIQMTQSPSSLSASVGDRVTITCRASQGIRNDLAWYQQKPGKAPKLLIYAASTLQNGVPSRFSGSGSGTDFTLTISSLQPEDFATYYCQQSYSTPWTFGQGTKVEIKR : its geometric mean MFI fold change over Jurkat parental reads 2 to 10 fold

Noted for Polypeptide No. 25 (scFv, V domains shown, scFv) VH: QVQLVQSGAEVKKPGASVKVSCKASGYTFTGYYMHWVRQAPGQGLEWMGRINPNGGSTTYAQKFQGRVTMTRDTSTSTVYMELSSLRSEDTAVYYCARDDFYYYYLDFWGKGTTVTVSS VL: DIQMTQSPSSLSASVGDRVTITCRASQSINDWLAWYQQKPGKAPKLLIYAASNLQSGVPSRFSGSGSGTDFTLTISSLQPEDFATYYCQQGYSTPPTFGQGTKVEIKR : its geometric mean MFI fold change over Jurkat parental reads < 2 fold

Noted for Polypeptide No. 12 (scFv, V domains shown, scFv) VH: EVQLLESGGGLVQPGGSLRLSCAASGFTFSSHWMSWVRQAPGKGLEWVSAISGSGGSTYYADSVKGRFTISRDNSKNTLYLQMNSLRAEDTAVYYCARDDNSGSQADWGQGTLVTVSS VL: DIQMTQSPSSLSASVGDRVTITCQASQDIDNYLNWYQQKPGKAPKLLIYDASNLETGVPSRFSGSGSGTDFTLTISSLQPEDFATYYCQQSYSTPLTFGGGTKLEIKR : its geometric mean MFI fold change over Jurkat parental reads < 2 fold

Noted for Polypeptide No. 7 (scFv, V domains shown, scFv) VH: QVQLVQSGAEVKKPGASVKVSCKASGYTFTDYYMHWVRQAPGQGLEWMGWINPNSGGTNYAQKFQGRVTMTRDTSTSTVYMELSSLRSEDTAVYYCARDSRIAVAASSFDYWGQGTLVTVSS VL: DIQMTQSPSSLSASVGDRVTITCRASRGINNWLTWYQQKPGKAPKLLIYGASSLQSGVPSRFSGSGSGTDFTLTISSLQPEDFATYYCQQSYRIPYTFGQGTKLEIKR : its geometric mean MFI fold change over Jurkat parental reads < 2 fold

Noted for Polypeptide No. 42 (scFv, V domains shown, scFv) VH: QVQLVQSGAEVKKPGASVKVSCKASGYTFTDYFMHWVRQAPGQGLEWMGWINPNSGNTGYAQKFQGRVTMTRDTSTSTVYMELSSLRSEDTAVYYCARLNDYGDYGGPATLDYWGQGTLVTVSS VL: DIQMTQSPSSLSASVGDRVTITCRASQGISNNLNWYQQKPGKAPKLLIYAASSLQSGVPSRFSGSGSGTDFTLTISSLQPEDFATYYCQQSYSTPPTFGQGTKLEIKR : its geometric mean MFI fold change over Jurkat parental reads 10 to 30 fold

Noted for Polypeptide No. 31 (scFv, V domains shown, scFv) VH: QVQLVQSGAEVKKPGSSVKVSCKASGGTFSTYAITWVRQAPGQGLEWMGGIIPIVGRANYAQKFQGRVTITADESTSTAYMELSSLRSEDTAVYYCARSGGHDLDYWGQGTLVTVSS VL: DIQMTQSPSSLSASVGDRVTITCRASQGIGNDLGWYQQKPGKAPKLLIYGASSVQSGVPSRFSGSGSGTDFTLTISSLQPEDFATYYCQQSYSTPITFGQGTRLEIKR : its geometric mean MFI fold change over Jurkat parental reads 10 to 30 fold
